biological target: UniProt:P01116; test: KRAS WT Biochemical Assay, BODIPY-GDP Exchange TR-FRET (Example 502; 0.06 nM KRAS WT, 15 nM GDP, 300 nM SOS1, 120-minute incubation); conditions: read-out: KRas HTRF IC50
IC50 overview
endpoint name: IC50 (nM)

CCc1cccc2cc(O)cc(-c3nc4c5c(nc(OC[C@@]67CCCN6C[C@H](F)C7)nc5c3F)N3C[C@H]5CC[C@H](N5)[C@H]3[C@H](C)O4)c12    13.3
C=C1CN2CCC[C@@]2(COc2nc3c4c(nc(-c5cc(N)c(F)c(C)c5C(F)(F)F)c(F)c4n2)O[C@@H](C)[C@@H]2[C@@H]4CC[C@H](CN32)N4)C1    0.633
Cc1c(F)c(N)cc(-c2nc3c4c(nc(OC[C@@]56CCCN5C[C@H](F)C6)nc4c2F)N2C[C@H]4CC[C@H](N4)[C@H]2CO3)c1C(F)(F)F    30.5
Cc1cc(N)c(F)c(-c2nc3c4c(nc(OC[C@@H]5CC[C@H]6COCCN65)nc4c2F)N2C[C@H]4CC[C@H](N4)[C@H]2[C@H](C)O3)c1C(F)(F)F    43.7
C[C@@H]1Oc2nc(-c3cc(N)c(F)cc3C(F)(F)F)c(F)c3nc(OC[C@@H]4CC[C@H]5COCCN54)nc(c23)N2C[C@H]3CC[C@H](N3)[C@@H]12    169
Cc1c(F)c(N)cc(-c2nc3c4c(nc(OC[C@H]5CC(F)(F)CN5C)nc4c2F)N2C[C@H]4CC[C@H](N4)[C@H]2[C@H](C)O3)c1C(F)(F)F    274
Cc1c(F)c(N)cc(-c2nc3c4c(nc(OC[C@@]56CCCN5[C@@H](C(F)F)CC6)nc4c2F)N2C[C@H]4CC[C@H](N4)[C@H]2[C@H](C)O3)c1C(F)(F)F (single isomer, unassigned) [130 (isomer 2)]    174
Cc1c(F)c(N)cc(-c2nc3c4c(nc(OC[C@H]5CC[C@@H]6CN(C)C(=O)CN56)nc4c2F)N2C[C@H]4CC[C@H](N4)[C@H]2[C@H](C)O3)c1C(F)(F)F (single isomer, unassigned) [131 (isomer 4)]    195
Cc1c(F)c(N)cc(-c2nc3c4c(nc(OCC5CCC6CC(F)(F)CN56)nc4c2F)N2C[C@H]4CC[C@H](N4)[C@H]2[C@H](C)O3)c1C(F)(F)F (single isomer, unassigned) [153 (isomer 3)]    125
Cc1c(F)c(N)cc(-c2nc3c4c(nc(OCC5(CN6C[C@H]7C[C@@H]6CO7)CC5)nc4c2F)N2C[C@H]4CC[C@H](N4)[C@H]2[C@H](C)O3)c1C(F)(F)F    2.16
